Where these numbers come from: patent US20140309265A1

For each of the compounds below, state its IC50.
target: XIAP His-BIR2 (124-240/C202A/C213G) (Homo sapiens, UniProt P98170, C202A/C213G); construct: additions of His-BIR2 (124-240/C202A/C213G), Biotinylated SMAC peptide; experiment: XIAP-BIR2/SMAC Peptide AlphaScreen Assay; format: binding; conditions: XIAP BIR2, AlphaScreen, Table 2; read-out: BIR2 IC50
Sequence (P98170 124-240 C202A/C213G): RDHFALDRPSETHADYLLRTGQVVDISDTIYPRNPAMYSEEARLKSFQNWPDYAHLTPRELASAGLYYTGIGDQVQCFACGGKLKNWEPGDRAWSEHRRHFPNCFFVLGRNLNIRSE

Reference set, count: 2
{"columns": ["compound-string", "target-under-test", "IC50"],
 "data": [
  ["CN[C@@H](C)C(=O)N[C@H](C(=O)N1C[C@@H]2C[C@H]1C(=O)N[C@@H](Cc1ccccc1)C(=O)N[C@H](C(=O)NCCN(C)C)Cc1ccc(cc1)OCc1cn(nn1)[C@H]1C[C@@H](C(=O)N[C@@H](Cc3ccccc3)C(=O)N[C@H](C(=O)NCCN(C)C)Cc3ccc(cc3)OCc3cn2nn3)N(C(=O)[C@@H](NC(=O)[C@H](C)NC)C(C)C)C1)C(C)C", "XIAP His-BIR2 (124-240/C202A/C213G) (Homo sapiens, UniProt P98170, C202A/C213G)", "> 12000 nM"],
  ["CN[C@@H](C)C(=O)N[C@H](C(=O)N1C[C@@H]2C[C@H]1C(=O)N[C@@H](Cc1ccccc1)C(=O)N(C)[C@H](C(=O)O)Cc1ccc(cc1)OCc1cn(nn1)[C@H]1C[C@@H](C(=O)N[C@@H](Cc3ccccc3)C(=O)N(C)[C@H](C(=O)O)Cc3ccc(cc3)OCc3cn2nn3)N(C(=O)[C@@H](NC(=O)[C@H](C)NC)C(C)C)C1)C(C)C", "XIAP His-BIR2 (124-240/C202A/C213G) (Homo sapiens, UniProt P98170, C202A/C213G)", "< 2000 nM"]
]}

Next compound, IC50 to be filled in.
[ask] Supply IC50 value. Item: CC[C@H](NC(=O)[C@H](C)NC)C(=O)N1C[C@@H]2C[C@H]1C(=O)N[C@@H](Cc1ccccc1)C(=O)N[C@H](C(=O)O)Cc1ccc(cc1)OCc1cn(nn1)[C@H]1C[C@@H](C(=O)N[C@@H](Cc3ccccc3)C(=O)N[C@H](C(=O)O)Cc3ccc(cc3)OCc3cn2nn3)N(C(=O)[C@H](CC)NC(=O)[C@H](C)NC)C1
[reply] < 2000 nM

----------
biological target: His-BIR3 (241-356, XIAP) (Homo sapiens, UniProt P98170); construct: additions of His-BIR3 (241-356, XIAP), fluorescein labeled SMAC peptide; assay: XIAP-BIR3/SMAC Homogeneous Time Resolved Fluorescence (HTRF) Assay; conditions: Table 4
Sequence (P98170 241-356): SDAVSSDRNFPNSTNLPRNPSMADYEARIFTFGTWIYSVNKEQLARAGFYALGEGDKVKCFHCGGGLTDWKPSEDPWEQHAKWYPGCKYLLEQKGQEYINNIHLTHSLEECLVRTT
pIC50: −log10 of the molar value.
experimental-readout: pIC50

{"columns": ["compound", "pIC50"],
 "data": [
  ["CN[C@@H](C)C(=O)N[C@H](C(=O)N1C[C@@H]2C[C@H]1C(=O)N[C@@H](Cc1ccc3ccccc3c1)C(=O)N[C@H](C(=O)O)Cc1ccc(cc1)OCc1cn(nn1)[C@H]1C[C@@H](C(=O)N[C@@H](Cc3ccc4ccccc4c3)C(=O)N[C@H](C(=O)NS(=O)(=O)c3ccncc3)Cc3ccc(cc3)OCc3cn2nn3)N(C(=O)[C@@H](NC(=O)[C@H](C)NC)C(C)(C)C)C1)C(C)(C)C [Compound 1046]", "> 8.00"],
  ["CN[C@@H](C)C(=O)N[C@H](C(=O)N1C[C@@H]2C[C@H]1C(=O)N[C@@H](Cc1ccc3ccccc3c1)C(=O)N[C@H](C(=O)O)Cc1ccc(cc1)OCc1cn(nn1)[C@H]1C[C@@H](C(=O)N[C@@H](Cc3ccc4ccccc4c3)C(=O)N[C@H](C(=O)NCc3cccc(-c4nnn[nH]4)c3)Cc3ccc(cc3)OCc3cn2nn3)N(C(=O)[C@@H](NC(=O)[C@H](C)NC)C(C)(C)C)C1)C(C)(C)C [Compound 1029]", "7.00 to 8.00"]
]}

Next compound, pIC50 to be filled in.
[ask] Supply pIC50 value. Item: CN[C@@H](C)C(=O)N[C@H](C(=O)N1C[C@@H]2C[C@H]1C(=O)N[C@@H](Cc1ccc3ccccc3c1)C(=O)N[C@H](C(=O)O)Cc1ccc(cc1)OCc1cn(nn1)[C@H]1C[C@@H](C(=O)N[C@@H](Cc3ccc4ccccc4c3)C(=O)N[C@H](C(=O)NS(=O)(=O)CCCNC(C)=O)Cc3ccc(cc3)OCc3cn2nn3)N(C(=O)[C@@H](NC(=O)[C@H](C)NC)C(C)(C)C)C1)C(C)(C)C [Compound 1052]
[reply] > 8.00
